# credit: ChEMBL document CHEMBL1151144

# Test system: Artemia
# PROCEDURE DETAILS: Toxicity against brine shrimp
# Type: organism-based
# CONDITION NOTES: in vivo
So I've got a bunch of molecules here, and I need their LC50 values.
Numbers only, in ppm.

MOLECULE	TARGET DESC	UNITS LABEL	LC50
CCCCCCCCCC[C@H](O)[C@H]1CC[C@H]([C@H]2CC[C@H]([C@H](O)CCCCCCCCCC[C@@H]3CC(CC(C)=O)C(=O)O3)O2)O1 (stereo partly drawn)	Artemia	ppm	0.003

Working through the 2 molecules below one at a time, give LC50 for each.
1. CCCCCCCCCCCCCC[C@@H](O)[C@H]1CC[C@H]([C@H](O)CC[C@H](O)CCCCC[C@@H](O)CC2=C[C@H](C)OC2=O)O1
2. CCCC(O)CCC(O)CCC(O)C1CCC(C2CCC(C(O)CCCCCCCCCCCCCC3CC(C)OC3=O)O2)O1 (stereo not drawn) [DIHYDROCHERIMOLINE]

1. 37
2. 4.02

---

# PROCEDURE DETAILS: Cytotoxicity against mouse 9PS cells
# Type: functional
TEST READOUT: ED50

Past entries and their recorded results:
MOLECULE	ED50
CCCCCCCCC[C@@H](OC(C)=O)[C@H](OC(C)=O)[C@@H]1CC[C@@H]([C@@H]2CC[C@@H]([C@@H](CCCCCCCCCCCCC3=CC(C)OC3=O)OC(C)=O)O2)O1 (stereo partly specified) [ROLLINICIN TRIACETATE]	2.6 ×10⁻⁴ ug/ml
CCCCCCCCCCCC[C@@H](O)[C@H]1CC[C@H]([C@H](O)CC[C@H](O)[C@@H]2CC[C@@H](CCCCC[C@@H](O)CC3=C[C@H](C)OC3=O)O2)O1	<1 ×10⁻⁵ ug/ml
CCCCCCCCCCCC[C@@H](O)[C@H]1CC[C@H]([C@H](O)CCCCC(=O)CCCCC[C@@H](O)CC2=C[C@H](C)OC2=O)O1	1 ×10⁻⁶ ug/ml
CCCCCCCCCC[C@@H](O)[C@@H]1CC[C@H]([C@H]2CC[C@@H]([C@@H](O)CCCCCCCCCC[C@H](O)CC3=C[C@@H](C)OC3=O)O2)O1	4.5 ×10⁻⁵ ug/ml
CCCCCCCCCCCC[C@@H](O)[C@H]1CC[C@H]([C@H](O)CCCC[C@H](O)CCCCC[C@@H](O)CC2=CC(C)OC2=O)O1 (stereo partly specified)	1 ×10⁻⁵ ug/ml

// switching to the query molecule
Record summary for CCCCCCCCC[C@@H](O)[C@@H](O)[C@@H]1CC[C@@H]([C@@H]2CC[C@@H]([C@@H](O)CCCCCCCCCCCCC3=CC(C)OC3=O)O2)O1 (stereo partly specified) : reported ED50 = 2.9 ×10⁻⁸ ug/ml

---

# PROCEDURE DETAILS: Cytotoxicity against mouse 9PS cells
# Format: functional
# CONDITION NOTES: Mus musculus; read-out: ED50 (the source's name)
TEST READOUT: EC50

Solved cases (3 shown):
COMPOUND	EC50
CCCC(O)CCC(O)CCC(O)C1CCC(C2CCC(C(O)CCCCCCCCCCCCCC3CC(C)OC3=O)O2)O1 (stereo unspecified) [DIHYDROCHERIMOLINE]	< 0.01 µg/mL
CCCCCCCCCCCC[C@H](O)[C@@H]1CC[C@@H]([C@@H](O)CCCCC(O)CCCCCC2CC(CC(C)=O)C(=O)O2)O1 (stereo partly specified) [ISOANNONACIN]	3 µg/mL
CCCCCCCCCCCC[C@H](O)[C@@H]1CC[C@@H]([C@@H](O)CCCCC(=O)CCCCCC2CC(CC(C)=O)C(=O)O2)O1 (stereo partly specified) [ISOANNONACINONE]	0.5 µg/mL

Batch of 3 compounds: report EC50 for each.
1. CCCCCCC(O)CCCC(O)C1CCC(C2CCC(C(O)CCCCCCCCCCCCC3=CC(C)OC3=O)O2)O1 (stereo unspecified) [ISOROLLINICIN]
2. CCCCCCCCCCCCCC[C@@H](O)[C@H]1CC[C@H]([C@H](O)CC[C@H](O)CCCCC[C@@H](O)CC2=C[C@H](C)OC2=O)O1 [GONIOTHALAMICIN]
3. CCCC(O)CCC(O)CCC(O)C1CCC(C2CCC(C(O)CCCCCCCCCCCCCC3=CC(C)OC3=O)O2)O1 (stereo unspecified) [CHERIMOLINE]

1. 0.01 µg/mL
2. < 0.1 µg/mL
3. < 0.01 µg/mL

---

# Test system: Artemia
# PROCEDURE DETAILS: Toxicity against brine shrimp
# Type: organism-based
# CONDITION NOTES: in vivo
TEST READOUT: LC50
Write the figure, then the unit, nothing else.

The cases that follow already have their LC50 on record.
COMPOUND	TARGET DESC	ASSAY VALUE
CCCCCCCCCC[C@H](O)[C@H]1CC[C@H]([C@H](O)CC[C@H](O)[C@@H]2CC[C@@H](CCCCCCC[C@@H](O)CC3=C[C@H](C)OC3=O)O2)O1	Artemia	0.154 ppm
CCCCCCCCCCCC[C@@H](O)[C@H]1CC[C@H]([C@H](O)CC[C@H](O)[C@@H]2CC[C@@H](CCCCC[C@@H](O)CC3=C[C@H](C)OC3=O)O2)O1	Artemia	222 ppm
CCCCCCCCCCCC[C@@H](O)[C@H]1CC[C@H]([C@H](O)CCCC[C@H](O)CCCCC[C@@H](O)CC2=CC(C)OC2=O)O1 (stereo partly specified)	Artemia	3.3 ppm
CCCCCCCCCC[C@@H](O)[C@@H]1CC[C@H]([C@H](O)CC[C@H](O)[C@@H]2CC[C@@H](CCCCCCC[C@@H](O)CC3=C[C@H](C)OC3=O)O2)O1	Artemia	26 ppm
CCCCCCCCCCCC[C@H](O)[C@@H]1CC[C@@H]([C@@H](O)CCCCCC(=O)CCCCC2CC(CC(C)=O)C(=O)O2)O1 (stereo partly specified)	Artemia	2.1 ppm

Just so you know, measured LC50 for CCCC(O)CCC(O)CCC(O)C1CCC(C2CCC(C(O)CCCCCCCCCCCCCC3=CC(C)OC3=O)O2)O1 (stereo unspecified) came out at 1.24 ppm
